- TESTED TARGET: human cloned CHRM4 receptor (Homo sapiens)
- Construct: expressed in transfected cells; host or cells: CHO-K1 (M4_CHO)
- Sequence (P08173 whole entry): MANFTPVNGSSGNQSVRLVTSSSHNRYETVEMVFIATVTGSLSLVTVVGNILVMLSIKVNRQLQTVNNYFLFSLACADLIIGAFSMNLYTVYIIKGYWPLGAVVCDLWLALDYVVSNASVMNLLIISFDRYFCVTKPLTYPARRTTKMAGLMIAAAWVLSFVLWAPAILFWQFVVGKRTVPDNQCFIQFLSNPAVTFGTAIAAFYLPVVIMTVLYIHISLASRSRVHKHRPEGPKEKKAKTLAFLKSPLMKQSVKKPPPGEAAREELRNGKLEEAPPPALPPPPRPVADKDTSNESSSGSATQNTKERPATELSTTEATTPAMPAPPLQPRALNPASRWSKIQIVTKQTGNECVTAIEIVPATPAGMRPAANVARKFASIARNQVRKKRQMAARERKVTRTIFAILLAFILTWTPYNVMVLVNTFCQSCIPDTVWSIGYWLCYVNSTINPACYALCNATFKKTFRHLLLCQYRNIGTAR
- EXPERIMENTAL DETAILS: CHRM4 Ca++ Flux Assay (M4_CHO cells, agonist mode)
- Type: cell-based
- CONDITION SUMMARY: Percent Activity (PA), read-out: M4 FDSS PA %
Classification scheme (Emax): low band: < 70%; middle band: ≥ 70% and < 80%; high band: ≥ 80%

Which class does COc1ccccc1C1CCN([C@@H]2COC3(C2)CN(c2nncs2)C3)CC1 [Example 5R] fall in? middle band

Try the compound COc1ccc(Cl)cc1C1CCN([C@@H]2COC3(C2)CN(c2ncns2)C3)CC1 [Example 5A] low band

Next compound: CC(C)(O)CCOc1ccc(F)cc1C1CCN([C@@H]2COC3(C2)CN(c2nncs2)C3)CC1 [Example 5P] low band

What do you get for Fc1ccc(OCc2ncccn2)c(C2CCN([C@@H]3COC4(C3)CN(c3nnco3)C4)CC2)c1 [Example 2I] ? middle band

What would you report for Fc1cc(OC2CCOCC2)c(C2CCN([C@@H]3COC4(C3)CN(c3nnco3)C4)CC2)cc1F [Example 2GG] ? low band

Continue with Fc1ccc(OC2CC3(COC3)C2)c(C2CCN([C@@H]3COC4(C3)CN(c3ncon3)C4)CC2)c1 [Example 6C] middle band

Next compound up: Fc1ccc(OC2COC2)c(C2CCN([C@@H]3COC4(C3)CN(c3nncs3)C4)CC2)c1 [Example 5G] middle band

Now this one: COCCOc1ccc(F)cc1C1CCN([C@@H]2COC3(C2)CN(c2ncco2)C3)CC1 [Example 4L] low band

Here is the next compound: Fc1ccc(OCC2(F)COC2)c(C2CCN([C@@H]3COC4(C3)CN(c3nnco3)C4)CC2)c1 [Example 2J] high band

Continue with Fc1ccc(OC[C@H]2CCCO2)c(C2CCN([C@@H]3COC4(C3)CN(c3nnco3)C4)CC2)c1 [Example 2M] low band

Another: Cc1cc(COc2ccc(F)cc2C2CCN([C@@H]3COC4(C3)CN(c3nnco3)C4)CC2)on1 [Example 2G] high band

Same question, c1ccc(C2CCN([C@@H]3COC4(C3)CN(c3nnco3)C4)CC2)c(O[C@@H]2CCOC2)c1 [Example 1O] this time high band

Then this compound: Cc1nnc(-c2ccccc2C2CCN([C@@H]3COC4(C3)CN(c3nnco3)C4)CC2)o1 [Example 1Y] high band

And what about the compound Fc1ccc(OC[C@H]2COCCO2)c(C2CCN([C@@H]3COC4(C3)CN(c3nncs3)C4)CC2)c1 [Example 5K] ? high band

----------
- TESTED TARGET: human cloned CHRM2 receptor (Homo sapiens, UniProt P08172)
- Construct: expressed in transfected cells; host or cells: CHO-K1 (M2_CHO)
- Sequence (P08172 whole entry): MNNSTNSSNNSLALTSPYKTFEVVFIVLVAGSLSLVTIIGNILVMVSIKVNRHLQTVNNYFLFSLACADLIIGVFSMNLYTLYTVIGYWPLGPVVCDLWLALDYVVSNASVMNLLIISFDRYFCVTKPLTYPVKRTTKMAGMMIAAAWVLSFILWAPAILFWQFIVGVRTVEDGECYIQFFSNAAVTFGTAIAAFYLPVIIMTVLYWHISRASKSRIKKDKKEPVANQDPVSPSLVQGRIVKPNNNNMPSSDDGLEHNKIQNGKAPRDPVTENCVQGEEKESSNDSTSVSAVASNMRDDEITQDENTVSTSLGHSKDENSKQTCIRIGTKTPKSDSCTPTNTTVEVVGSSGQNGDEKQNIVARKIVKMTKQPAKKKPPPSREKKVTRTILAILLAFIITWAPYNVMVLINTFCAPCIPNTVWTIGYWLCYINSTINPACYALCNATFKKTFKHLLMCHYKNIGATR
- EXPERIMENTAL DETAILS: CHRM2 Ca++ Flux Assay (M2_CHO cells, agonist mode)
- Type: cell-based
- CONDITION SUMMARY: Percent Activity (PA) measured to EC100 of Carbachol; M2 CHO cells
MEASURE NAME: M2 FDSS PA % (%)
Number only, in %; omit the unit.

# lookup: M2 FDSS PA % of CC(C)(O)[C@H]1C[C@@H](Oc2ccc(F)cc2C2CCN([C@@H]3COC4(C3)CN(c3ncco3)C4)CC2)C1 (single isomer, unassigned) [Example 4T] 43

Request: CC1(C)C[C@@H](Oc2ccc(F)cc2C2CCN([C@@H]3COC4(C3)CN(c3nnco3)C4)CC2)CO1 (single isomer, unassigned) [Example 2N] 20

// same read-out, input: CC1(C)C[C@@H](Oc2ccc(F)cc2C2CCN([C@@H]3COC4(C3)CN(c3nnco3)C4)CC2)CO1 (single isomer, unassigned) [Example 2O] 37

Same thing, different molecule: Fc1ccc(OC[C@H]2CCO2)c(C2CCN([C@@H]3COC4(C3)CN(c3nncs3)C4)CC2)c1.O=C(O)C(F)(F)F (single isomer, unassigned) [Example 2C] 39

// next record Fc1ccc(O[C@H]2CCCOC2)c(C2CCN([C@@H]3COC4(C3)CN(c3nnco3)C4)CC2)c1 (single isomer, unassigned) [Example 2R] 42

Now try Fc1ccc([C@H]2CCOC2)c(C2CCN([C@@H]3COC4(C3)CN(c3nnco3)C4)CC2)c1 (single isomer, unassigned) [Example 3F] . 49

----------
- TESTED TARGET: human cloned CHRM3 receptor (Homo sapiens)
- Construct: expressed in transfected cells; host or cells: CHO-K1 (M3_CHO)
- Sequence (P20309 whole entry): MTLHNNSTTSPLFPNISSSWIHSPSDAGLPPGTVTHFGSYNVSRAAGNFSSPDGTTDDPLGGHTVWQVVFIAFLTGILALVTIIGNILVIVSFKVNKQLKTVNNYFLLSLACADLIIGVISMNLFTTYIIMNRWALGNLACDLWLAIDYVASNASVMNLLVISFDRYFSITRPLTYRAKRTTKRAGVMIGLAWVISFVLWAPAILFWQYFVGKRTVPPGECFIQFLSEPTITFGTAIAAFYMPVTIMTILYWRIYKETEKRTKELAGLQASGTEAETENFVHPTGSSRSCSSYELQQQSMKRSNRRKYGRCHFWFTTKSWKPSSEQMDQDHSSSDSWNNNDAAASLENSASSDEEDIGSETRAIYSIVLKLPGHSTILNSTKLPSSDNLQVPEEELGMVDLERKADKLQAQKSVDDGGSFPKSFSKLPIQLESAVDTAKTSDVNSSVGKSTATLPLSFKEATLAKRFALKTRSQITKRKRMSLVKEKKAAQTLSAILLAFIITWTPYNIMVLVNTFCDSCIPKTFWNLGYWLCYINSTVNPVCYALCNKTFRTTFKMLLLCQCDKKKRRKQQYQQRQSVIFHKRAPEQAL
- EXPERIMENTAL DETAILS: CHRM3 Ca++ Flux Assay (M3_CHO cells, agonist mode)
- Type: cell-based
- CONDITION SUMMARY: Percent Activity (PA) measured to EC100 of Carbachol
So I've got a bunch of compounds here, and I need their M3 FDSS PA % values.
Expressed in %, but write only the number.

Tell me the measured M3 FDSS PA % of CC1(C)C[C@@H](Oc2ccc(F)cc2C2CCN([C@@H]3COC4(C3)CN(c3nnco3)C4)CC2)CO1 (single isomer, unassigned) [Example 2N] , please. 0

Try the compound CC(C)(O)[C@H]1C[C@@H](Oc2ccc(F)cc2C2CCN([C@@H]3COC4(C3)CN(c3ncco3)C4)CC2)C1 (single isomer, unassigned) [Example 4U] 0

Also Fc1ccc([C@H]2CCOC2)c(C2CCN([C@@H]3COC4(C3)CN(c3nnco3)C4)CC2)c1 (single isomer, unassigned) [Example 3F] ? 0

----------
Field: EC50. Provide a value for each of the compounds that follow.
- TESTED TARGET: human cloned CHRM2 receptor (Homo sapiens, UniProt P08172)
- EXPERIMENTAL DETAILS: CHRM2 Ca++ Flux Assay (M2_CHO cells, agonist mode)
- CONDITION SUMMARY: M2 CHO cells, agonist mode; geometric mean if tested more than once; read-out: M2 FDSS EC50
- Experimental: The above examples were characterized by measuring the intracellular mobilization of Ca^++ ions caused by signaling events mediated by the receptor. […] Prior to the day of the assay, stable M2 CHO cells were thawed and plated on Greiner 384 well TC treated plate at a density of 12K cells/well and kept overnight in a humidified atmosphere (5% CO2) at 37° C. […] The Percent Activity (PA) was measured to EC100 of Carbachol. […]
Return type: number; implicit unit nM.

So what's the measured EC50 for this one? CC1(C)C[C@@H](Oc2ccc(F)cc2C2CCN([C@@H]3COC4(C3)CN(c3nnco3)C4)CC2)CO1 (single isomer, unassigned) [Example 2O] 581

Do the same for Fc1ccc(OC2COC2)c(C2CCN([C@@H]3COC4(C3)CN(c3nnco3)C4)CC2)c1 [Example 1A] please 536

----------
- TESTED TARGET: Cloned human M1 receptor (CHRM1) (Homo sapiens, UniProt P11229)
- Construct: expressed in transfected cells; host or cells: HEK293
- Sequence (P11229 whole entry): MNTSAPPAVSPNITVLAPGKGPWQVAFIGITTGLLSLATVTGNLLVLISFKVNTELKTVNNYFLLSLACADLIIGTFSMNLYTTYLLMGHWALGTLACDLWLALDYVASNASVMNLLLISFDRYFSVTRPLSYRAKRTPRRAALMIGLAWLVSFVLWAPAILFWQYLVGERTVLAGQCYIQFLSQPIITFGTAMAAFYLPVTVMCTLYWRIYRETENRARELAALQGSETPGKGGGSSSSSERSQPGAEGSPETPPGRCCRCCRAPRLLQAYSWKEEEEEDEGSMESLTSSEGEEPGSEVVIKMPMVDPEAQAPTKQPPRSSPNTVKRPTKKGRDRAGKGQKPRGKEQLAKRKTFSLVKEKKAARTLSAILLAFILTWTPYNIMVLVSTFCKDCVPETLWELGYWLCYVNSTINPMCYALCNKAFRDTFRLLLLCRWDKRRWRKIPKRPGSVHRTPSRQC
- EXPERIMENTAL DETAILS: CHRM1 Ca++ Flux Assay (HEK293 M1 cells, agonist mode)
- Format: cell-based
- CONDITION SUMMARY: Percent Activity (PA)
MEASURE NAME: M1 FDSS PA % (%)
Give the quantity in %, number only.

Which M1 FDSS PA % reading was recorded for the molecule Fc1ccc(O[C@H]2CCCOC2)c(C2CCN([C@@H]3COC4(C3)CN(c3nnco3)C4)CC2)c1 (single isomer, unassigned) [Example 2Q] ? 80

Try CC(C)(O)[C@H]1C[C@@H](Oc2ccc(F)cc2C2CCN([C@@H]3COC4(C3)CN(c3ncco3)C4)CC2)C1 (single isomer, unassigned) [Example 4T] next. 63

Again, but for Fc1ccc([C@H]2CCOC2)c(C2CCN([C@@H]3COC4(C3)CN(c3nnco3)C4)CC2)c1 (single isomer, unassigned) [Example 3E] 86

----------
- TESTED TARGET: human cloned CHRM5 receptor (Homo sapiens)
- Construct: expressed in transfected cells; host or cells: CHO (M5_CHO)
- Sequence (P08912 1-532): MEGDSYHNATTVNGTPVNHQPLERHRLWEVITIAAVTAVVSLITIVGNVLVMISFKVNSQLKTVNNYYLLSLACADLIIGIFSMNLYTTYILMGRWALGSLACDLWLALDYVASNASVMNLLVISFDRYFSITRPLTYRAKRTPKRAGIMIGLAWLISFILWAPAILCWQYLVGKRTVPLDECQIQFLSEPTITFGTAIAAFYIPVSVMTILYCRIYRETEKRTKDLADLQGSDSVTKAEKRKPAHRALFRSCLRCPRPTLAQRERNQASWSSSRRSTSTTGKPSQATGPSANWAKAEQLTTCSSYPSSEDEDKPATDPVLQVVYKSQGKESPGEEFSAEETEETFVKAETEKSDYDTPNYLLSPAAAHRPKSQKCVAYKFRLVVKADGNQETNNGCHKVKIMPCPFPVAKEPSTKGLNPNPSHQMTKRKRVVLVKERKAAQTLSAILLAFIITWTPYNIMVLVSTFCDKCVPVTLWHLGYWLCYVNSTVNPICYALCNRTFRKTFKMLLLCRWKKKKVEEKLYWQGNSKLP
- EXPERIMENTAL DETAILS: CHRM5 Ca++ Flux Assay (M5_CHO cells, agonist mode)
- Assay type: cell-based
- CONDITION SUMMARY: Percent Activity (PA) measured to EC100 of Carbachol
Would you mind telling me the reported M5 FDSS PA % of each entry?
Give just the numeric value; % need not be written.

Hi! What's the reported M5 FDSS PA % for CC(C)(O)[C@H]1C[C@H](Oc2ccc(F)cc2C2CCN([C@@H]3COC4(C3)CN(c3nnco3)C4)CC2)C1 (single isomer, unassigned) [Example 2W] on human cloned CHRM5 receptor (Homo sapiens)? 0

Cool, now C[C@H](Oc1ccc(F)cc1C1CCN([C@@H]2COC3(C2)CN(c2nnco2)C3)CC1)C1CCOCC1 [Example 2X] 0

// repeat for Fc1ccc(O[C@H]2CCCOC2)c(C2CCN([C@@H]3COC4(C3)CN(c3nnco3)C4)CC2)c1 (single isomer, unassigned) [Example 2R] and report 0

# repeat for Fc1ccc(OC[C@H]2CCO2)c(C2CCN([C@@H]3COC4(C3)CN(c3nncs3)C4)CC2)c1.O=C(O)C(F)(F)F (single isomer, unassigned) [Example 2D] 0

Another compound: c1ccc([C@@H]2CCOC2)c(C2CCN([C@@H]3COC4(C3)CN(c3nnco3)C4)CC2)c1 (single isomer, unassigned) [Example 3A] 0
